# experimentalProtocol: physchem
chromatographic logD for assorted molecules
readoutKind: chromatographic logD

* NC(=O)c1sc(N2CCOCC2)cc1OCCc1cccc(F)c1 | 2.05
* c1ccc(CCOc2csc(N3CCOCC3)c2)cc1 | 1.96
* NC(=O)c1sc(N2CCOCC2)cc1OCCc1ccccc1F | 2.05
* NC(=O)c1sccc1OCCc1ccccc1 | 2.05

Each recorded value in this set is attributed to paper PMC6089501.
